- procedure details: solvent given as SMILES
- reported conditions: in CC#N

[
  {
    "compound": "O=C(O)c1ccc(-c2ccc(-c3nc(-c4ccccc4)c4ccccn34)cc2)s1",
    "absorption maximum [nm]": 362
  },
  {
    "compound": "CN(C)c1ccc(C(=O)Nc2ccc([N+](=O)[O-])cc2)cc1",
    "absorption maximum [nm]": 354
  },
  {
    "compound": "COC(=O)CN1C(=O)c2cc3ccc(N(C)C)cc3cc2C1=O",
    "absorption maximum [nm]": 380
  },
  {
    "compound": "CCCn1c(=O)c(/C=C/c2nc3ccc(C)cc3n(CCC)c2=O)nc2ccc(C)cc21",
    "absorption maximum [nm]": 431
  },
  {
    "compound": "CC1=C(Cc2ccccc2)C(C)=[N+]2C1=C(C)c1c(C)c(-c3csc(N4CCOCC4)n3)c(C)n1[B-]2(F)F",
    "absorption maximum [nm]": 517
  },
  {
    "compound": "CC(C)CCCN1c2ccccc2CCc2ccccc21",
    "absorption maximum [nm]": 276
  },
  {
    "compound": "CCOC(=O)CSc1nc(-c2ccccc2)c(C)c(C#N)c1C#N",
    "absorption maximum [nm]": 365
  },
  {
    "compound": "C[Si]1(C)C2=C(c3ccc(N(c4ccccc4)c4ccccc4)cc31)P(=O)(c1ccccc1)c1ccccc12 (stereo not given)",
    "absorption maximum [nm]": 440
  },
  {
    "compound": "COc1ccc(-n2nc(C#N)c(N3CCN(c4ccccn4)CC3)n2)cc1",
    "absorption maximum [nm]": 321
  },
  {
    "compound": "CC(C)(C)c1ccc2c(c1)c1cc(C(C)(C)C)ccc1n2-c1ccc(-c2nc(-c3ccc(P(=O)(c4ccccc4)c4ccccc4)cc3)nc(-c3ccc(P(=O)(c4ccccc4)c4ccccc4)cc3)n2)cc1",
    "absorption maximum [nm]": 361.43
  }
]
